Reference source for all entries: the supplement of paper PMC9112550

Parameter: shrunken log2 fold change. Scope: all listed entries.
- Test system: Escherichia coli TOP10;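 further: peptides expressed intracellularly from a pBAD plasmid library in pooled LB shake-flask culture, induced with 0.3% L-arabinose, DNA abundance read by NGS, three biological replicates, DESeq2 with apeglm shrinkage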
- ASSAY_INFO: shrunken log2 fold change of peptide-encoding DNA abundance (4.5 h post-induction vs induction); higher = less antimicrobial activity (less host growth inhibition)
- CONDITION_SET: time post-induction: 4.5 h; library: site-saturation at positions 5, 18, 19, 20
MEASURED_QUANTITY: shrunken log2 fold change

> print(dat)
           ordered.residues  measured
 1  RRIRTRPPRLPRPRPRPCHMPRP   -0.0872
 2  RRIRNRPPRLPRPRPRPRAHPRP   -0.0951
 3  RRIRFRPPRLPRPRPRPLSVPRP    -0.271
 4  RRIRRRPPRLPRPRPRPSWKPRP      0.16
 5  RRIRTRPPRLPRPRPRPNCYPRP    -0.836
 6  RRIRARPPRLPRPRPRPHKDPRP    0.0954
 7  RRIRVRPPRLPRPRPRPKWYPRP    -0.194
 8  RRIRVRPPRLPRPRPRPTNTPRP    -0.175
 9  RRIRERPPRLPRPRPRPVSFPRP   -0.0647
10  RRIRRRPPRLPRPRPRPLQCPRP      0.18
11  RRIRWRPPRLPRPRPRPKQCPRP      0.31
